Target: T1, ZFP SBS#1328 (synthetic)
T1 chain: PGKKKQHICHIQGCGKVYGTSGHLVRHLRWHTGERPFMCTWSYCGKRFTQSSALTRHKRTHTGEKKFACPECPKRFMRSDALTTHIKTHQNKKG
Assay: EMSA
Conditions: tags: MBP fusion
MEASURED METRIC: Kd (nM)

> print(dat)
                                     binder  measured.metric  unit.of.measure  result.value
1  TTGGTTGGT (dsDNA) DNA 1: TTGGTTGGT DNA 2: ACCAACCAA               Kd               nM          7.95
